Test system: KB85 (Homo sapiens)
Assay: Concentration required to kill human epidermoid KB85 cell lines containing moderate levels of P-glycoprotein after 3 days of continuous exposure
Settings: KB85, 72 h
pIC50 values for the compounds below.
Scale for pIC50: -log10 of concentration given in mol/L; no unit attached.

Known pIC50 results, listed for orientation:
| structureNotation | numericValue |
| --- | --- |
| CN[C@H](C(=O)N[C@H](C(=O)N(C)[C@H](/C=C(\C)C(=O)O)C(C)C)C(C)(C)C)C(C)(C)c1ccsc1 | 8.18 |
| CN[C@H](C(=O)N[C@H](C(=O)N(C)[C@H](/C=C(\C)C(=O)O)C(C)C)C(C)(C)C)C(C)(C)c1ccc(Cl)cc1 | 8.77 |
| CCOC(=O)/C(C)=C/[C@H](C(C)C)N(C)C(=O)[C@@H](NC(=O)[C@@H](NC)C(C)(C)c1cccc(C)c1)C(C)(C)C | 6.28 |
| CN[C@H](C(=O)N[C@H](C(=O)N(C)[C@H](/C=C(\C)C(=O)O)C(C)C)C(C)(C)C)C(C)(C)c1cc(C)cc(C)c1 | 8.91 |
| CN[C@H](C(=O)N[C@H](C(=O)N(C)[C@H](/C=C(\C)C(=O)O)C(C)C)C(C)(C)C)C(C)(C)c1cccc(Br)c1 | 8.39 |

# query: pIC50 of entry CN[C@@H](C(=O)N[C@H](C(=O)N(C)[C@H](/C=C(\C)C(=O)O)C(C)C)C(C)(C)C)C(C)(C)c1ccc(C)cc1
7.56

# query: pIC50 of entry CN[C@H](C(=O)N[C@H](C(=O)N(C)[C@H](/C=C(\C)C(=O)O)C(C)C)C(C)(C)C)C(C)(C)c1cn(C)c2ccccc12
9.00

# query: pIC50 of entry CN[C@H](C(=O)N[C@H](C(=O)N(C)[C@H](/C=C(\C)C(=O)O)C(C)C)C(C)(C)C)C(C)(C)c1cccc(C(F)(F)F)c1
8.77

# query: pIC50 of entry C=Cc1cccc(C(C)(C)[C@H](NC)C(=O)N[C@H](C(=O)N(C)[C@H](/C=C(\C)C(=O)O)C(C)C)C(C)(C)C)c1
8.70

# query: pIC50 of entry CN[C@@H](C(=O)N[C@H](C(=O)N(C)[C@H](/C=C(\C)C(=O)O)C(C)C)C(C)(C)C)C(C)(C)c1cccc(C)c1
7.70

Provenance of the data: ChEMBL document CHEMBL1137922
